The measurements presented in this section are drawn from patent US12103919B2.

log10(DC50) for assorted compounds
# Target Entity: WIZ (Homo sapiens, UniProt O95785+Q96SW2)
# Construct: expressed in transfected cells
# Sequence (O95785 whole entry): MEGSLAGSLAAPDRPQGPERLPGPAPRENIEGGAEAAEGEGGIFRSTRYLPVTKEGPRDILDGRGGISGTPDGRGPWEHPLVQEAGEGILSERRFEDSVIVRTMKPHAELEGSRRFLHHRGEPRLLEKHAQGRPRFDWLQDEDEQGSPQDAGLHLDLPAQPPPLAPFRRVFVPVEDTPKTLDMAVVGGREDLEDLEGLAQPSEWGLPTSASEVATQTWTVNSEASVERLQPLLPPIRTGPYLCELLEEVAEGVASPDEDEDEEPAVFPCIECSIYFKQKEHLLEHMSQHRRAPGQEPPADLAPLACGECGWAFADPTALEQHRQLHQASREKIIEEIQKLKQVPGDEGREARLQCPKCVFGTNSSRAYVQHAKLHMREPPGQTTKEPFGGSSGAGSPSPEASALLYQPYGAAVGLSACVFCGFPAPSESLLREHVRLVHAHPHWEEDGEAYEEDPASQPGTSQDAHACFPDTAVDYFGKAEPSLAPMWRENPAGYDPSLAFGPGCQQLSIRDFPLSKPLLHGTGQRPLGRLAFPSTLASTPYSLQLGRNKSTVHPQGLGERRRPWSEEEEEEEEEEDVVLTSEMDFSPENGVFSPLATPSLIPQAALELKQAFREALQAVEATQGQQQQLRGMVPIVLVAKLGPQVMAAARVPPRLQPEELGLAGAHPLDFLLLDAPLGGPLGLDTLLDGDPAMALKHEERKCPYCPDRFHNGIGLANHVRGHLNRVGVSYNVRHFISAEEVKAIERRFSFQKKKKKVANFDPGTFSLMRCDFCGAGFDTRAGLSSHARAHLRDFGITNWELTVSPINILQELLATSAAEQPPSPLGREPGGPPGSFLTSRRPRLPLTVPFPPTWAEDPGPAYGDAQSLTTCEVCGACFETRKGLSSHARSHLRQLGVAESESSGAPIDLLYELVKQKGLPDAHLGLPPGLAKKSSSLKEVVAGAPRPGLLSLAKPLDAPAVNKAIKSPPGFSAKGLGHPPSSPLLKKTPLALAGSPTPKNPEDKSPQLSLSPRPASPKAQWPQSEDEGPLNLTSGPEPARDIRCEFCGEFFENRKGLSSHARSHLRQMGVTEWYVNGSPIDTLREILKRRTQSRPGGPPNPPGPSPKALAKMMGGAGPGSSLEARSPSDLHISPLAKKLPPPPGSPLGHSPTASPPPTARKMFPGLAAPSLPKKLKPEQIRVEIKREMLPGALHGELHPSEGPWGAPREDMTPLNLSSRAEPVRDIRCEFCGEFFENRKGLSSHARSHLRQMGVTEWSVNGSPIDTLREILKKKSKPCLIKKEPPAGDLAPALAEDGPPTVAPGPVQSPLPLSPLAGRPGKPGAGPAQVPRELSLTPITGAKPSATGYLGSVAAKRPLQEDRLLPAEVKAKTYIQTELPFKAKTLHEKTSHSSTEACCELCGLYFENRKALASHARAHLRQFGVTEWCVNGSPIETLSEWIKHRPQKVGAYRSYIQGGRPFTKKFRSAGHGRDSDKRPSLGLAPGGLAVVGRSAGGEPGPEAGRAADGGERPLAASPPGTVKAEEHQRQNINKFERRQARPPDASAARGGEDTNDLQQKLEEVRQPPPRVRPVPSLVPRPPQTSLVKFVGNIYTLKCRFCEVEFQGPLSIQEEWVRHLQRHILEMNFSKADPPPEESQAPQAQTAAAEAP
# Sequence (Q96SW2 whole entry): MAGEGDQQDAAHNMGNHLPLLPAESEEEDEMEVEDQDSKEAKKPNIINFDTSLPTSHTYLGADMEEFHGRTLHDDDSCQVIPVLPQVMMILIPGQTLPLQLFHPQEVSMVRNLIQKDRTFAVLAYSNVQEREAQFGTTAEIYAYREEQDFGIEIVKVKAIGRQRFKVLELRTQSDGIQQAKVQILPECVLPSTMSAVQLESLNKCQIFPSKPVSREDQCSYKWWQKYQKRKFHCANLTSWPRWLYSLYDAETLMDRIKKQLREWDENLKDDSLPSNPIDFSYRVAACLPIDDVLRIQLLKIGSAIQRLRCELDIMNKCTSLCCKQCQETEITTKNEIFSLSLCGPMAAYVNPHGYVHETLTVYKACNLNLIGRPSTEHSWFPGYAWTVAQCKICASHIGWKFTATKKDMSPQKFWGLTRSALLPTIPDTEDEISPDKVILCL
# Sequence (Q16531 whole entry partner): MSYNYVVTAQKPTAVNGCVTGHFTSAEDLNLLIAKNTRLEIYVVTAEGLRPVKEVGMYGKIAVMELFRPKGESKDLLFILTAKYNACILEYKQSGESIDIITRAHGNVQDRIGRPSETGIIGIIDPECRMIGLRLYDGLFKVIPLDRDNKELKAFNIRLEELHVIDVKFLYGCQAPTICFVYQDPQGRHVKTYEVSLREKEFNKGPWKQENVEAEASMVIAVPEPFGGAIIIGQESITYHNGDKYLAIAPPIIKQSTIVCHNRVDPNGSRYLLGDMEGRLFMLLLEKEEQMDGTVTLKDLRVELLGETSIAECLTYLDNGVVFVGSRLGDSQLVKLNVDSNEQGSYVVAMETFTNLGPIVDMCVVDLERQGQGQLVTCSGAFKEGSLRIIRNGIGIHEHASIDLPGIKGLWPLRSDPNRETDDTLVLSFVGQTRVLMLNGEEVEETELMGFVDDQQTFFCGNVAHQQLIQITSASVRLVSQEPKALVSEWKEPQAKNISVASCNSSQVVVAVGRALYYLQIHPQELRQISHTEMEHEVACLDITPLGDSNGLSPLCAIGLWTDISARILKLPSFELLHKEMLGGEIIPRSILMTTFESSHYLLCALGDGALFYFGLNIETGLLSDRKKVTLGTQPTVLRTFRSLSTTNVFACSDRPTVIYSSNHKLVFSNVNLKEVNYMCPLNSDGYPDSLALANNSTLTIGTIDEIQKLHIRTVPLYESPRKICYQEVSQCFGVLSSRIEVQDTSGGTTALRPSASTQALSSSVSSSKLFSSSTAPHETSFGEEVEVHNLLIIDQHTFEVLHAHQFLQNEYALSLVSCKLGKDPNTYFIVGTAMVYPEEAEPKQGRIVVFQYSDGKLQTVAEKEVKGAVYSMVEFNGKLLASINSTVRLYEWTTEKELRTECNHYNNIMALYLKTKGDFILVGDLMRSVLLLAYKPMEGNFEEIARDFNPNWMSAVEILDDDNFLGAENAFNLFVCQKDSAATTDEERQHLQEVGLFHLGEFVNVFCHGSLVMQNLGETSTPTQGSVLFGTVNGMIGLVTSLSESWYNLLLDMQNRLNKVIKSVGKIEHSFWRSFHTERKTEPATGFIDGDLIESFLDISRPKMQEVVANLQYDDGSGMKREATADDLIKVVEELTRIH
# Measurement Notes: Quantification of WIZ protein levels in HiBit tag fusion protein assay (293T cells)
# Type: cell-based
# Test Conditions: WIZ HiBit assay in 293T cells, about 18 hours, 10-point 5-fold dilution, top 25 μM; read-out: WIZ AC50
Parameter value (number): base-10 log of DC50 in µM.

The examples below pair each entry with its known result.
>  <Compound>
CCN1C[C@@H](O)C[C@@H](Oc2ccc3c(c2)CN(C2CCC(=O)NC2=O)C3=O)C1 (mixture of isomers)

>  <Reported>
-1.06

$$$$
>  <Compound>
CCN1C[C@H](OC)C[C@@H](Oc2ccc3c(c2)CN(C2CCC(=O)NC2=O)C3=O)C1 (stereo partly drawn) [Example 64]

>  <Reported>
-2.20

$$$$
>  <Compound>
CCN1C[C@H](C)C[C@@H](Oc2ccc3c(c2)CN(C2CCC(=O)NC2=O)C3=O)C1 (single isomer, unassigned) [Example 76-1]

>  <Reported>
-2.80

$$$$
>  <Compound>
C=CCCN1CCC[C@@H](Oc2ccc3c(c2)CN(C2CCC(=O)NC2=O)C3=O)C1 (stereo partly drawn)

>  <Reported>
-2.05

$$$$
>  <Compound>
CCN1C[C@H]2C[C@H]2[C@@H](Oc2ccc3c(c2)CN(C2CCC(=O)NC2=O)C3=O)C1 (single isomer, unassigned)

>  <Reported>
-1.08

$$$$
>  <Compound>
CO[C@H]1CC[C@H](CN2CCC[C@@H](Oc3ccc4c(c3)CN(C3CCC(=O)NC3=O)C4=O)C2)CC1 (stereo partly drawn)

>  <Reported>
-1.10

$$$$

# next compound below
Given the entry CCN1C[C@@H](C)C[C@@H](Oc2ccc3c(c2)CN(C2CCC(=O)NC2=O)C3=O)C1 (mixture of isomers) , report its measured log10(DC50).
-2.12
